Provenance of the data: PubChem BioAssay (NCI)

Test system: OVCAR-4 ovarian
assay info: NCI-60 one-dose screen, 48 h
stated conditions: 10 µM unless noted
Compounds without any hit were thinned out: in the full panel of roughly 83,000, 20% have a hit. The source made the active and inactive calls. The calls were made as follows: active = growth percent below 10; inactive = the rest.
Tick one outcome: TRUE = active, FALSE = inactive

[ask] Hi, sorry to bother you, what did the test record for `Cc1nn(-c2ccccc2)c(Oc2ccc(Cl)cc2)c1/C=N\N=c1/sc2ccccc2n1C` ?
[reply] FALSE

[ask] Further, for `NS(=O)(=O)c1cnccc1Oc1cccc2cccnc12` ?
[reply] FALSE

[ask] Further, for `c1csc(-c2c3ccc(=[N+]4CCCCC4)cc-3oc3cc(N4CCCCC4)ccc23)c1` ?
[reply] TRUE

[ask] Further, for CN1C(=O)N(C)C2C1NN=c1s/c(=C\c3ccccc3)c(=O)n12 (stereo unspecified) ?
[reply] FALSE

[ask] Further, for `Cc1cc(/C=C\c2ccc3ccccc3[n+]2C)c(O)c2ncccc12` ?
[reply] TRUE

[ask] Further, for `O=[N+]([O-])c1ccc(OCCO)cc1` ?
[reply] FALSE

[ask] Further, for Cc1ccc(-n2nc3c(c(C#N)c2=O)CC(c2ccccc2Cl)C([N+](=O)[O-])=C3O)cc1 (stereo unspecified) ?
[reply] FALSE

[ask] Further, for COCN1CCC2N(COC)CCC3N(COC)CCC1N23 (stereo unspecified) ?
[reply] FALSE

[ask] Further, for `O=c1ccn2nc3ccccc3c2[nH]1` ?
[reply] FALSE

[ask] Further, for COc1ccc(-c2[nH]c(=S)n(C(CC3(C)NCC(=O)N3n3c(-c4ccccc4)cc(C)nc3=S)c3ccc(OC)cc3)c(=O)c2Br)cc1 (stereo unspecified) ?
[reply] FALSE

[ask] Further, for `COc1ccc(-c2c(N)n[nH]c2-c2ccc(Cl)cc2O)cc1OC` ?
[reply] FALSE

[ask] Further, for `Cc1ccc2nc(NC(=O)CSc3nc(Nc4ccc([N+](=O)[O-])cc4)c(C#N)c(-c4ccccc4)n3)sc2c1` ?
[reply] FALSE

[ask] Further, for `CCCCCCCCCCCCCCCCCCOc1ccc(CC(=O)OCC[N+]2(C)CCCC2)cc1` ?
[reply] FALSE

[ask] Further, for `N=C1C(c2nc(-c3ccc(Br)cc3)cs2)=C(O)CN1Cc1cccnc1` ?
[reply] FALSE

[ask] Further, for `Cc1ccc(N2CCN(C(=S)c3cccs3)CC2)cc1` ?
[reply] FALSE

[ask] Further, for `COc1ccc(S(=O)(=O)NCCNc2nccc(-c3c(-c4cccc(F)c4)nc4sccn34)n2)cc1` ?
[reply] FALSE

[ask] Further, for `O=C(NCCCNc1cc(-c2cn(-c3ccccc3)nc2-c2cccc(O)c2)ccn1)c1ccc(F)cc1` ?
[reply] FALSE

[ask] Further, for `COc1cc(C(=O)c2cc(C)c3[nH]c4ccc(Cl)cc4c3c2C)cc(OC)c1OC` ?
[reply] FALSE

[ask] Further, for `COc1cccc(C(=O)NCCNc2cc(-c3cn(-c4ccccc4)nc3-c3cccc(OC)c3)ccn2)c1` ?
[reply] FALSE

[ask] Further, for `CCOC(=O)c1c2ncccc2n2c(=O)n(-c3ccccc3C)nnc12` ?
[reply] FALSE

[ask] Further, for `O=C(Nc1cccc(Cl)c1)c1cc(N=Nc2ccc([N+](=O)[O-])cc2Cl)ccc1O` ?
[reply] FALSE
